# experimental_protocol: Plasma pharmacokinetics of ABX464 and ABX464-NGlc in HIV-infected subjects
# Assay type: in vivo, human
# condition_details: human, plasma, po, 50 mg, HIV-infected, single oral 50mg (fasted), N 7; read-out: Cmax, Mean
measured_property: Cmax
Express your answer as a number followed by its unit.

Could you tell me which Cmax is on file for `FC(F)(F)Oc1ccc(Nc2ccc3cccc(Cl)c3n2)cc1` ?
19.4 ng/mL

###

# experimental_protocol: Plasma pharmacokinetics of ABX464 and ABX464-NGlc in HIV-infected subjects
# Type: in vivo, human
# condition_details: human, plasma, po, 50 mg, HIV-infected, single oral 50mg (fasted), N 7; read-out: t1/2, GM (converted)
measured_property: half-life (min)
Hi! Could you send only the number? It should be in min, unit omitted.

Could you tell me which half-life is on file for `FC(F)(F)Oc1ccc(Nc2ccc3cccc(Cl)c3n2)cc1` ?
56.4
